B1: ZNF8 (parent)
chain: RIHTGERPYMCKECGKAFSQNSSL

variants of: B1; assay: protein stability index of a GFP-peptide fusion (GPS, HEK-293T) (PSI 1-6); higher = more stable; settings: c terminus: a fixed tail appended;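 further: lentivirally expressed fusions sorted by FACS into six bins by GFP to DsRed ratio, PSI derived from sequencing read proportions per bin multiplied by bin number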
# label = Criterion met if protein stability index >= 2 else Criterion not met

{"sequence-text": "RIHTGERPYMCKECGKAASQNSSL", "label-value": "Criterion met"}
{"sequence-text": "RIHTGERPYMCKEAGKAFSQNSSL", "label-value": "Criterion met"}
{"sequence-text": "RIHTGERPYMIKECGKAFSQNSSL", "label-value": "Criterion met"}
{"sequence-text": "RIHTGERPYMCKECGKAFSQNISL", "label-value": "Criterion not met"}
{"sequence-text": "RIHTGERPKMCKECGKAFSQNSSL", "label-value": "Criterion not met"}
{"sequence-text": "PIHTGERPYMCKECGKAFSQNSSL", "label-value": "Criterion met"}
{"sequence-text": "RIHTGERPYMCKECGKAMSQNSSL", "label-value": "Criterion met"}
{"sequence-text": "RIHTGERPYMCKECVKAFSQNSSL", "label-value": "Criterion met"}
{"sequence-text": "RIHTGERPYMCKECGKAISQNSSL", "label-value": "Criterion met"}
{"sequence-text": "RIHTGERPIMCKECGKAFSQNSSL", "label-value": "Criterion met"}
{"sequence-text": "RIHMGERPYMCKECGKAFSQNSSL", "label-value": "Criterion not met"}
{"sequence-text": "RIHTGERCYMCKECGKAFSQNSSL", "label-value": "Criterion met"}
{"sequence-text": "RIHTGERPYMCKECGLAFSQNSSL", "label-value": "Criterion not met"}
{"sequence-text": "RIHTGERPNMCKECGKAFSQNSSL", "label-value": "Criterion met"}
{"sequence-text": "RIHTGERPYMCKECGKAPSQNSSL", "label-value": "Criterion met"}
{"sequence-text": "RIHTGERPYFCKECGKAFSQNSSL", "label-value": "Criterion met"}
{"sequence-text": "RIHTGERPYMCKECGDAFSQNSSL", "label-value": "Criterion met"}
{"sequence-text": "RIHTGERPYMCKECGKAFSQNSKL", "label-value": "Criterion met"}
{"sequence-text": "RIHTGERPYECKECGKAFSQNSSL", "label-value": "Criterion met"}
{"sequence-text": "RIHTGERPYMCKECGKAFSNNSSL", "label-value": "Criterion met"}
{"sequence-text": "RIHTGERPYMCKECGKAFSQNSSG", "label-value": "Criterion met"}
{"sequence-text": "RIHTGERPYMCKECGKAFSQNSSN", "label-value": "Criterion met"}
{"sequence-text": "RIHTGERPYMCKECGKAFPQNSSL", "label-value": "Criterion not met"}
{"sequence-text": "RIHTGERPVMCKECGKAFSQNSSL", "label-value": "Criterion met"}
{"sequence-text": "RIHTGERPYMCKECGKAFSQNVSL", "label-value": "Criterion not met"}
{"sequence-text": "RIHTGERPYMCLECGKAFSQNSSL", "label-value": "Criterion not met"}
{"sequence-text": "RIHTGERPYMCKECGKAFLQNSSL", "label-value": "Criterion met"}
{"sequence-text": "RIHTGERPYMCKECGTAFSQNSSL", "label-value": "Criterion met"}
{"sequence-text": "RIHTGERPYMHKECGKAFSQNSSL", "label-value": "Criterion met"}
{"sequence-text": "RIHTGEIPYMCKECGKAFSQNSSL", "label-value": "Criterion met"}
{"sequence-text": "RIHTGERPYMCKECGKACSQNSSL", "label-value": "Criterion met"}
{"sequence-text": "RIMTGERPYMCKECGKAFSQNSSL", "label-value": "Criterion met"}
{"sequence-text": "RIHTGERPYMCKECGKAFSQNSST", "label-value": "Criterion met"}
{"sequence-text": "RIHTGERPYGCKECGKAFSQNSSL", "label-value": "Criterion met"}
{"sequence-text": "RIHTGERPYMCKECGKAFSQNSSC", "label-value": "Criterion met"}
{"sequence-text": "RIHTGERPYMCWECGKAFSQNSSL", "label-value": "Criterion not met"}
{"sequence-text": "RIHTGEHPYMCKECGKAFSQNSSL", "label-value": "Criterion met"}
{"sequence-text": "RIHTGERPYMCKECGKAFSQNSQL", "label-value": "Criterion met"}
{"sequence-text": "RDHTGERPYMCKECGKAFSQNSSL", "label-value": "Criterion met"}
